# Test system: TO-N3 (biotin conjugate)
# Assay name: pull-down binding Z-score (relative to library population); higher = stronger binding
# Reported conditions: RNA library: Library-2
# label = Condition met if pull-down binding Z-score >= -0.2 else Condition not met

AGAACAUUCGUUCACUUUCCU [hsa-mir-6747]    Condition not met

Hi team, for AGAUCUGUCUCUGAUUGUUUCCAAGAUCU [hsa-mir-6888] , is the recorded pull-down binding Z-score at or above -0.2? Condition met

Is pull-down binding Z-score for ACAGGUUUUAUCGAACCUGU [IAV_invivo_PB1_2_Motif_25+IAV_invivo_PB1_2_Motif_25] at or above -0.2? Condition not met
